TARGET SYSTEM: UniProtKB A0A509ALK1
Sequence (A0A509ALK1 1182-1809): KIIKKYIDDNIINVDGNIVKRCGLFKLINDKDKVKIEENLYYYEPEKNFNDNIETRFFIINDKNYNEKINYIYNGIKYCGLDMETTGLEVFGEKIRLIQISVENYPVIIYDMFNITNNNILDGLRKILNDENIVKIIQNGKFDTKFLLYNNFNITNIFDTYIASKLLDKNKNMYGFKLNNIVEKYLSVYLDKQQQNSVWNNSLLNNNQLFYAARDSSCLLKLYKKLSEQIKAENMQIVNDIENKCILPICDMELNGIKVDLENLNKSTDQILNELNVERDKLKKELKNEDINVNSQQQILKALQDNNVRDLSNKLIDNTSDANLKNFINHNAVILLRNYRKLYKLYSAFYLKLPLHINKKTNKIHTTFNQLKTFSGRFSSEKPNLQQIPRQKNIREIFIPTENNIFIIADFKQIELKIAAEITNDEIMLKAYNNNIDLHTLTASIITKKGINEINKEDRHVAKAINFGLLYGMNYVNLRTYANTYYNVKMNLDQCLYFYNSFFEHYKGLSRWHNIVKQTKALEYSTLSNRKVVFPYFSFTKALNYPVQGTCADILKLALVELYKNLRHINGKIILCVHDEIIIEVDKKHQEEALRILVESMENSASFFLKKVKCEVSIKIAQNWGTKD
Below, each entry is listed with its recorded IC50.
Numbers only; they are read as µM.

OC(C#Cc1ccccc1)c1ccco1 (centres unmarked); 8.6
O=[N+]([O-])c1ccc(/C=C/c2ccc3ccccc3n2)o1; 9.7
O=C(O)c1ccc(-c2nc3cc(-c4ccc5nc(-c6ccc(C(=O)O)cc6)[nH]c5c4)ccc3[nH]2)cc1; 7.1
CCOc1nc2cccc(C(=O)OC(C)OC(=O)OC3CCCCC3)c2n1Cc1ccc(-c2ccccc2-c2nnn[nH]2)cc1 (centres unmarked); 13.9

Task: Could you share which IC50 value was measured for `COc1ccc(CNC(=O)Cn2nc3c(c2NC(=O)Cc2cccs2)CSC3)cc1` ?
Result: 51.9

###

TARGET SYSTEM: P. falciparum apicoplast DNA polymerase (Pf-apPOL) (Plasmodium falciparum, UniProt Q8ILY1)
Sequence (Q8ILY1 entry or part of it): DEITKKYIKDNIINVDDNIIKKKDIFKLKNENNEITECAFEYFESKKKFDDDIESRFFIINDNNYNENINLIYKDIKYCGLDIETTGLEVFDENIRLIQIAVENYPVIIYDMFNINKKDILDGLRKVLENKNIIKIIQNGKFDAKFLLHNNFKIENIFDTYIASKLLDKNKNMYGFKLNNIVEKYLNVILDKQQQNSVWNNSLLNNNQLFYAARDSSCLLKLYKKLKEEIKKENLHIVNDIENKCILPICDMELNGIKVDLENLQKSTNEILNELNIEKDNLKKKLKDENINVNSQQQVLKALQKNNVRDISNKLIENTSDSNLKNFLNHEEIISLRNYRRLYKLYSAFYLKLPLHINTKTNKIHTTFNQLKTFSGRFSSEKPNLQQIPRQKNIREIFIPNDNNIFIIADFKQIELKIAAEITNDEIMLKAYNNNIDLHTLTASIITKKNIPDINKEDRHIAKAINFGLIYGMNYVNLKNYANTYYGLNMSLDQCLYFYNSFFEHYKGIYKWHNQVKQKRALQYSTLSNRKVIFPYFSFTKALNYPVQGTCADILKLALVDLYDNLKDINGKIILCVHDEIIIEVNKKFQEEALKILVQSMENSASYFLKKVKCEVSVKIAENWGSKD
METHOD: Fluorescence-based high-throughput DNA polymerase assay (molecular beacon), primary screen and dose-response
Assay type: biochemical
SETTINGS: DRC-2; 5'; concentration 40
Description: The HT assay employs a molecular beacon, a stem-loop DNA template with a Cy3 dye and the Black Hole Quencher on the 3′ and 5′ ends of the DNA, respectively. Pf-apPOL concentration is based on a calculated absorptivity of ε280 = 56750 M^−1 cm^−1. […] To identify apPOL inhibitors we utilised our previously developed high-throughput DNA polymerase assay. […] The assay accurately recapitulates the kinetic behaviour of apPOL, as measured through more conventional low-throughput gel-based assays. […]
ASSAY METRIC: % inhibition Apo pol 5'

Task: Request the reported % inhibition Apo pol 5' associated with Cc1cccc(-c2nnc3ccc(NS(=O)(=O)c4ccc(C)c(C)c4)nn23)c1 [Molecule 40]
Result: 22%

Task: Can you share its % inhibition Apo pol 5'? I mean this molecule: O=C(O)c1c(F)c(F)c(-c2c(F)c(F)c(C(=O)O)c(F)c2F)c(F)c1F [KU0008974]
Result: 17%

Task: Fill in: % inhibition Apo pol 5' of COc1ccc(-c2occ(C(=O)O)c2C(=O)O)cc1 [KU0021536] is ___
Result: 50%

Task: Any idea what its % inhibition Apo pol 5' is? The molecule is Cc1cc(C)c2c(c1)C1C=CCC1C(c1ccc(C(=O)O)cc1)N2 (centres unmarked) [Molecule 102]
Result: 59%

###

Entries and their % inhibition apPOL 180'
TARGET SYSTEM: P. falciparum apicoplast DNA polymerase (Pf-apPOL) (Plasmodium falciparum)
METHOD: Fluorescence-based high-throughput DNA polymerase assay (molecular beacon), primary screen and dose-response
Assay type: biochemical
SETTINGS: DRC-1; concentration 40; 180'
Numeric only. Scale: %

Solved cases below.
Oc1cccnc1/N=C/c1cc(I)cc(I)c1O [KU0073720]; 82.0572
CCc1ccccc1NC(=O)c1ccc(-c2ncccc2NC(C)=O)cc1 [KU0203112]; 58.4495
Cc1cc(C)nc(Nc2nc(CC(=O)Nc3nc(-c4ccco4)cs3)cs2)n1 [Molecule 92]; 83.5937

Attention now turns to another entry.
Task: Return reported % inhibition apPOL 180'; argument: O=C(Cn1ccc2c(=O)[nH]ccc21)Nc1ccccc1Cl [Molecule 19, O=C(Cn1ccc2c1cc[nH]c2=O)Nc1ccccc1Cl]
Result: 93.0665

###

TARGET SYSTEM: UniProtKB Q8ILY1
METHOD: Fluorescence-based high-throughput DNA polymerase assay (molecular beacon), primary screen and dose-response
Type: biochemical
SETTINGS: DRC-1; read at 180'; concentration 2.5
ASSAY METRIC: % inhibition apPOL 180' 2.5 (%)
Answer in %, number only, no unit symbol.

O=C1CSC2=NC3=C(CCc4ccccc43)C(c3cccs3)N12 (stereo not shown); -6.428
Cc1cc2[nH]c(C(=O)Nc3ccc(F)cc3)c(CN3CCOCC3)c2s1; -7.929
C#CC(C=CC)OC(=O)c1ccccc1C(=O)O (stereo not shown); -3.738
COc1ccc(/C=C/c2cc(C(=O)O)c3ccccc3n2)cc1; 28.4361

Task: Item under review: `CC(=O)OCC1=C(C(=O)[O-])N2C(=O)[C@@H](NC(=O)Cc3cccs3)[C@H]2SC1.[Na+]` . Reported % inhibition apPOL 180' 2.5?
Result: -8.644

Task: Need % inhibition apPOL 180' 2.5, item `N#Cc1c(O)nc(N2CCCCC2)nc1-c1ccc2c(c1)OCO2`
Result: -1.148

Task: So what does the record say about % inhibition apPOL 180' 2.5 for `CC(=O)Nc1cc(C(=O)c2cccs2)nn(-c2ccc(Cl)cc2)c1=O` ?
Result: -1.959

Task: # input molecule: `O=C(c1ccccc1)N1CCc2c(nc3cc(-c4ccccc4)[nH]n3c2=O)C1` ; wanted: its % inhibition apPOL 180' 2.5
Result: 0.553

Task: Suppose we examine the molecule `O=C(CCc1csc(NC(=O)Nc2ccccc2)n1)Nc1nc2ccccc2s1` ; what % inhibition apPOL 180' 2.5 value has been reported?
Result: -6.865

###

TARGET SYSTEM: bacteriophage T4 DNA polymerase (Enterobacteria phage T4, UniProt P04415)
Construct: made in house
Sequence (P04415 whole entry): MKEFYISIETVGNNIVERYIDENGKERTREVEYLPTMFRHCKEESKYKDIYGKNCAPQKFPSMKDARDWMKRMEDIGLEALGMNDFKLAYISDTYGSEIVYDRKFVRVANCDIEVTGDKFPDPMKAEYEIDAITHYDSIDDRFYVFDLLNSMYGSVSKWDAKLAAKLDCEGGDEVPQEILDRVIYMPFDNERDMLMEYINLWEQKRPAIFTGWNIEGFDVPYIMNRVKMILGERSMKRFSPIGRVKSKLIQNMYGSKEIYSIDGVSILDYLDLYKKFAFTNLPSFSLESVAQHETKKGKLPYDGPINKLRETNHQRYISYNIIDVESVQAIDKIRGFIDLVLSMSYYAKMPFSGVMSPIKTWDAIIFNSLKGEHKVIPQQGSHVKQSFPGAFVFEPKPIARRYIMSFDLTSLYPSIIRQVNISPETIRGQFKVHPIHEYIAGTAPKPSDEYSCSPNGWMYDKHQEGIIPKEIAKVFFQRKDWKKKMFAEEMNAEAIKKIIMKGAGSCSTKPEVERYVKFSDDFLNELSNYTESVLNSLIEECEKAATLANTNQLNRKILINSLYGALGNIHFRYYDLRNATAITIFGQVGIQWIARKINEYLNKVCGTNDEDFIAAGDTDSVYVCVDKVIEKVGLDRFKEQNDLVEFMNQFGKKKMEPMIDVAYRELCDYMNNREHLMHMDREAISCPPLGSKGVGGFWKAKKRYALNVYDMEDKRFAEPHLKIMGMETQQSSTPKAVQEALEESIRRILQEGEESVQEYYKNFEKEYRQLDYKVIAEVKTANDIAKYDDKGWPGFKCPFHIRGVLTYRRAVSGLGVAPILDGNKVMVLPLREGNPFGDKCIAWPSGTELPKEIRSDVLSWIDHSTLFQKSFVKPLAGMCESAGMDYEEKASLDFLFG
METHOD: Counter-screen against bacteriophage T4 DNA polymerase
Format: biochemical
SETTINGS: DRC-2; 10'; concentration 80
Here the recorded % inhibition T4 10' is given for each entry.
Express the result in % but write the number alone.

CC(=O)c1cc2c(N)c(/C(N)=N/C#N)sc2nc1C; -21
O=C(Nc1ccc2c(c1)Cc1cc(NC(=O)c3ccco3)ccc1-2)c1ccco1; 20
Cc1ccc(-n2nnc(C(=O)O)c2-c2ccccn2)c(F)c1; 24
CCCCC(=O)N1CCc2c(nc3cc(-c4ccccc4Cl)[nH]n3c2=O)C1; 1.57

Task: # input compound: `Cc1ccc2c(C(=O)NCCc3cccnc3)cc(NC(=O)C(C)C)cc2n1` ; wanted: its % inhibition T4 10'
Result: 35

Task: Consider the compound shown here: `Cc1cccc2c(C(=O)NC(C)C)cc(N(C)C)nc12` What is its recorded % inhibition T4 10'?
Result: 30

Task: Which value of % inhibition T4 10' has been reported for CCC(C)NC(=O)c1cc(NC(C)=O)cc2nc(C)ccc12 (stereo not drawn) in the records?
Result: 42

###

TARGET SYSTEM: P. falciparum apicoplast DNA polymerase (Pf-apPOL) (Plasmodium falciparum, UniProt Q8ILY1)
METHOD: Fluorescence-based high-throughput DNA polymerase assay (molecular beacon), primary screen and dose-response;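 on % inhibition ApPOL 90': test concentration in µM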
Assay type: biochemical
SETTINGS: DRC-2; 90'; concentration 40
molecules and their reported % inhibition ApPOL 90'
Use % as the unit, but write only the number.

Task: Would you mind telling me what % inhibition ApPOL 90' value was observed for Cc1cccc(-c2nnc3ccc(NS(=O)(=O)c4ccc(C)c(C)c4)nn23)c1 [Molecule 40] ?
Result: 57

Task: Given the molecule O=C(c1ccccc1)N1CCc2c(nc3cc(-c4ccccc4)[nH]n3c2=O)C1 [Molecule 30] , what is its reported % inhibition ApPOL 90'?
Result: 61

Task: Need % inhibition ApPOL 90', item O=C(NC(C(Cl)Cl)S(=O)(=O)c1ccccc1)c1ccccc1 (stereo not drawn) [KU0045239]
Result: 76

###

TARGET SYSTEM: P. falciparum apicoplast DNA polymerase (Pf-apPOL) (Plasmodium falciparum, UniProt Q8ILY1)
METHOD: Fluorescence-based high-throughput DNA polymerase assay (molecular beacon), primary screen and dose-response;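 on % inhibition ApPOL 90': test concentration in µM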
Type: biochemical
SETTINGS: DRC-2; 90'; concentration 2.5 (unit not given)
ASSAY METRIC: % inhibition ApPOL 90' (%)
Numbers only here, please. The scale is %.

Oc1cccc2ccc(/C=C/c3ccc4c(c3)OCO4)nc12; 12
O=c1cc(CN2CCCCC2)c2cc3c(cc2o1)OCO3; 8
COc1ccc(-c2c(C(F)(F)F)nn3c(=O)cc(-c4cccc([N+](=O)[O-])c4)[nH]c23)cc1; 13
O=c1[nH]c2ccc(Br)cc2c(-c2ccccc2)c1C1=NNC(c2ccco2)C1 (stereo not drawn); 15
COCCN(CCOC)Cc1c(O)ccc2c1OC(=Cc1cc(Br)ccc1OC)C2=O; 10

Read the next record carefully.
Task: So what does the record say about % inhibition ApPOL 90' for `Cc1ccc(C)c(CSc2nc(C3CCCCC3)c(C#N)c(=O)[nH]2)c1` ?
Result: 10
